# assayExplanation: In vitro cytotoxicity, MTT assay
# Format: cell-based, human
# conditionNotes: human, SH-SY5Y cells
quantity: viability at 24 h, 10 µM

Reported viability at 24 h, 10 µM for CS(=O)(=O)c1ccc2nc(NC(=O)CCN3CCN(c4ccccn4)CC3)sc2c1 [Compound 12] : what is it? > 67%
